B1: glmS ribozyme (parent)
chain: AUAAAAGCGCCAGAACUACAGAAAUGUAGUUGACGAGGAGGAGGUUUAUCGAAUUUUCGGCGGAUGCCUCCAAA

# Variants of: B1
# test_protocol: self-cleavage kobs at 2500 uM GlcN6P; higher = faster cleavage; RNA array
# experimental_conditions: with glucosamine-6-phosphate
Fewer inactive variants are shown than the library holds.
metric: self-cleavage kobs at 2500 uM GlcN6P

Inquiry: Quote self-cleavage kobs at 2500 uM GlcN6P reported for A12U C50U G59U please.
Reply text: < 1e-05 s⁻¹
